Value source: patent US20220363770A1

Assay Target: T1, human CGRP receptor extracellular domain (ECD) (human, UniProt Q16602 23-138; O60894 27-117)
T1 construct: also called CGRP receptor ECD; human CGRP receptor ECD
T1 sequence (Q16602 23-138 limits assumed, chain 1 of 2): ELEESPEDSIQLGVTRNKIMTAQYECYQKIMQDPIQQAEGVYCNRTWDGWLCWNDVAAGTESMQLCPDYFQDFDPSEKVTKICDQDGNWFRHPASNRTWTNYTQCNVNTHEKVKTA
T1 sequence (O60894 27-117 limits assumed, chain 2 of 2): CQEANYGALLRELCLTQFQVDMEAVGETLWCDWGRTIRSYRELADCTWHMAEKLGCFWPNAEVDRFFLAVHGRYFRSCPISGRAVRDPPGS
Protocol Notes: yeast-displayed Fab, FACS, 10 nM human CGRP receptor ECD
Recorded Normalized Binding Signal/Display Signal (B/D), one value per entry.
Express your answer in ratio, writing the number without its unit.

| Binder | Value Unit | Result Value |
| --- | --- | --- |
| anti-CGRP receptor variant 05, yeast-displayed Fab (Fab, V domains shown, also called Variant Ab ID 05) VH: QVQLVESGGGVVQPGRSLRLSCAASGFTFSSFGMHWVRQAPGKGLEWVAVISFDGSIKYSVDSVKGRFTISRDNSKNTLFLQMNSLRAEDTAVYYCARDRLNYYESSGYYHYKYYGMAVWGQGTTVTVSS VL: QSVLTQPPSVSAAPGQKVTISCSGSFSNIGRSTVSWYQQLPGTAPKLLIYDNRWRAGGIPDRFSGSKSGTSATLGITGLQTGDEADYYCGTWDYQWKAVVFGGGTKLTVLG | ratio | 3.78 |
| anti-CGRP receptor variant 06, yeast-displayed Fab (Fab, V domains shown, also called Variant Ab ID 06) VH: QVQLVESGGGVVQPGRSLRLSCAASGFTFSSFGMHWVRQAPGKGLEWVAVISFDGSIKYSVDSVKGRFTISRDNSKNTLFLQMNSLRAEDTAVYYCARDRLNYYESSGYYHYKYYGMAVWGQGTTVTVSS VL: QSVLTQPPSVSAAPGQKVTISCSGSYSNIGRKSVSWYQQLPGTAPKLLIYDNNKRPSGIPDRFSGSKSGTSATLGITGLQTGDEADYYCGTWDSRLSAVVFGGGTKLTVLG | ratio | 1.13 |

Okay, now this binder:
Record request: Normalized Binding Signal/Display Signal (B/D) value, item anti-CGRP receptor variant 12, yeast-displayed Fab (Fab, V domains shown, also called Variant Ab ID 12) VH: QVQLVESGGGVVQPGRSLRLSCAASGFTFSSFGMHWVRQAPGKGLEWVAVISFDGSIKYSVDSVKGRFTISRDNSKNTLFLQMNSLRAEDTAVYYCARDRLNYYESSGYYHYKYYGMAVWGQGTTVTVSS VL: QSVLTQPPSVSAAPGQKVTISCSGSRSNIGRYSVSWYQQLPGTAPKLLIYDNRYRAQGIPDRFSGSKSGTSATLGITGLQTGDEADYYCGTWDWATTSVVFGGGTKLTVLG
1.5
